This collection of values is drawn from patent US20230167453.

- Measurement target: T1, CD5L (CD5 antigen-like) (Homo sapiens, UniProt O43866 O43866:20-347)
- T1 sequence: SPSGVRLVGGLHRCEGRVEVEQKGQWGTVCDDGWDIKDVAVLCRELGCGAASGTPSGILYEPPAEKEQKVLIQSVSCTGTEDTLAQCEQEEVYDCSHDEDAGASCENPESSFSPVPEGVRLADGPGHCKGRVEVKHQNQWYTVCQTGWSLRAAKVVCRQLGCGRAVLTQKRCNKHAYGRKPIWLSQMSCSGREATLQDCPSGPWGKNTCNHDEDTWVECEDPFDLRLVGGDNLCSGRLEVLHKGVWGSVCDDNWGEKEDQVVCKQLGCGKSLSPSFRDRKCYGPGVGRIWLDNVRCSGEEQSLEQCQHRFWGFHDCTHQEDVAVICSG
- Measurement description: MST; TBS; 1 nM labeled CD5L
- Setup conditions: tags: His-tagged, Sino Biological 10791-H08H; fluorescently labeled for MST except with Cy5-S76.T; predicted hairpin
pKd: −log10 of the molar value.

# Binder, pKd
data = [
    ("S76 (ssRNA, 2'-F pyrimidines) RNA: AGACAAGAAUAAACGCUCAAUUAUCGGAGAGGCCGAACAGAUACUUCGUUAGACAGGUUGCAGCGUUCGACAGGAGGCUCACAACAGGC", 8.66),
]
